Where do the numbers come from? From ChEMBL document CHEMBL3988442.

- Tested on: Mycobacterium tuberculosis
- experiment notes: Cornell M. t heat shock assay; note: in the data most compounds retested in dose-response had high values
- Format: functional, organism-based
- Set-up: dose or concentration left out as unconfirmed
The campaign covered roughly 69,000 compounds. About 950 (1.4%) showed an effect of 50% or more. This excerpt belongs to a sample that is enriched for strong results.
measured endpoint: Percent Effect

INSERT INTO results (compound, test_value) VALUES
  ('Clc1ccc(OCCNCCn2cccn2)cc1', '-6.93%'),
  ('CC(Cn1cccn1)NCc1nc(-c2ccccn2)no1 (configuration not stated)', '-7.12%'),
  ('CCC(=O)Nc1ccc2c(c1)C1(CCOCC1)CN2CCF.O=C(O)C(F)(F)F', '28.61%'),
  ('Fc1ccc(CNCCn2cccn2)cc1F', '-1.295%'),
  ('CCN1CC2(CCOCC2)c2cc(NS(=O)(=O)CC)ccc21.O=C(O)C(F)(F)F', '51.54%');

Turning now to a further record.
Q) Indicate the recorded Percent Effect value for this compound: CO[C@H]1C[C@@H]2CN(C(=O)c3cc4ccc(F)cc4[nH]3)C[C@@H]2C1
A) 35.64%
